experiment: Metabolic stability in male Sprague-Dawley rat liver microsomes assessed as intrinsic clearance at 1 uM by LC/MS/MS analysis; assay type: ADME, Microsome; conditions: read-out: CLH (converted)
property-name: CLint scaled at 1 µM (mL/min/kg)
A number alone suffices; assume mL/min/kg.

So what does the record say about CLint scaled at 1 µM for C[C@@H](OC(=O)Nc1c(-c2ccc(NC(=O)c3cnc(C(F)(F)F)nc3)cn2)nnn1C)c1cc(F)cnc1F ? 16.3

Would you kindly repeat that for C[C@@H](OC(=O)Nc1c(-c2ccc(NS(C)(=O)=O)cn2)nnn1C)c1cc(F)cnc1F ? 18.5

* * *

biological target: Lysophosphatidic acid receptor 1 (Homo sapiens, UniProt Q92633)
Sequence (Q92633 whole entry): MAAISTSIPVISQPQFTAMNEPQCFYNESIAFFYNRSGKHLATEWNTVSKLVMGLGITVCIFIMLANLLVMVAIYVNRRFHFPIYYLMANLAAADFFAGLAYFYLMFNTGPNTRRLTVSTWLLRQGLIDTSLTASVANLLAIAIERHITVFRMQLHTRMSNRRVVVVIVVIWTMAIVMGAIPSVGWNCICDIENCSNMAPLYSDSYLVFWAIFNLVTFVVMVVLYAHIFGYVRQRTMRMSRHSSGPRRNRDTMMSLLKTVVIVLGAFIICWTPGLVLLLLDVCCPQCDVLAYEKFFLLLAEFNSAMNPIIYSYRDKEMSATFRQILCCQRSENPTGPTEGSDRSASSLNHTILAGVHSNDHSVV
property-name: pKi
Scale note: pKi = -log10(concentration in M).

So what does the record say about pKi for C[C@@H](OC(=O)Nc1c(-c2ccc(NC(=O)c3cnc(C(F)(F)F)nc3)cn2)nnn1C)c1cc(F)cnc1F ? 7.22

* * *

test: Plasma protein binding in human assessed as unbound fraction incubated for 24 hrs by equilibrium dialysis based Rapidfire-QToF mass spectrometric analysis; format: ADME, cell-free
property-name: fraction unbound at 24 h

Observe how each entry below is paired with its result.
[
  {
    "structure-smiles": "C[C@@H](OC(=O)Nc1c(-c2ccc(NS(C)(=O)=O)cn2)nnn1C)c1cccc(F)c1",
    "fraction unbound at 24 h": 0.25
  },
  {
    "structure-smiles": "Cc1nc(-c2nnn(C)c2NC(=O)O[C@H](C)c2cc(F)cnc2F)ccc1NS(C)(=O)=O",
    "fraction unbound at 24 h": 0.15
  },
  {
    "structure-smiles": "Cn1nnc(-c2ccc(NS(C)(=O)=O)cn2)c1NC(=O)O[C@H](CF)c1ccccc1",
    "fraction unbound at 24 h": 0.27
  }
]

// switching to the query compound
So what does the record say about fraction unbound at 24 h for C[C@@H](OC(=O)Nc1c(-c2ccc(NC(=O)C34CC(F)(C3)C4)cn2)nnn1C)c1cc(F)cnc1F ? 0.33

* * *

molecular target: Lysophosphatidic acid receptor 1 (Homo sapiens); assay: Antagonist activity at LPA1 receptor in human TWNT-4 cells pre-incubated for 1 hr followed by LPA stimulation and measured after 30 min in presence of 4% human serum albumin by MRTF-A assay; assay type: cell-based
property-name: EC50 (µM)
A number alone suffices; assume µM.

So what does the record say about EC50 for C[C@@H](OC(=O)Nc1c(-c2ccc(NC(=O)c3cnc(C(F)(F)F)nc3)cn2)nnn1C)c1cc(F)cnc1F ? 0.034

* * *

In this section we review reported fraction unbound at 24 h values for a set of compounds.
experiment: Plasma protein binding in human assessed as unbound fraction incubated for 24 hrs by equilibrium dialysis based Rapidfire-QToF mass spectrometric analysis; type: ADME, cell-free
Form: value (number only, do not type unit).

Observe how each entry below is paired with its result.
[
  {
    "structure-smiles": "C[C@@H](OC(=O)Nc1c(-c2ccc(N)cn2)nnn1C)c1cc(F)cnc1F.Cl",
    "fraction unbound at 24 h": 0.71
  },
  {
    "structure-smiles": "Cc1nc(-c2nnn(C)c2NC(=O)O[C@H](C)c2cccc(F)c2)ccc1NS(C)(=O)=O",
    "fraction unbound at 24 h": 0.22
  }
]

So what does the record say about fraction unbound at 24 h for C[C@@H](OC(=O)Nc1c(-c2ccc(NS(C)(=O)=O)cn2)nnn1C)c1cc(F)cnc1Cl ? 0.18

Would you kindly repeat that for C[C@@H](OC(=O)Nc1c(-c2ccc(NS(C)(=O)=O)cn2)nnn1C)c1cc(F)cnc1F ? 0.31

Would you kindly repeat that for Cc1nc(-c2nnn(C)c2NC(=O)O[C@H](C)c2ccccc2)ccc1NS(C)(=O)=O ? 0.2

Recorded values, source ChEMBL document CHEMBL6103545.
